Target System: CYP3A4 (Homo sapiens)
Sequence (P08684 whole entry): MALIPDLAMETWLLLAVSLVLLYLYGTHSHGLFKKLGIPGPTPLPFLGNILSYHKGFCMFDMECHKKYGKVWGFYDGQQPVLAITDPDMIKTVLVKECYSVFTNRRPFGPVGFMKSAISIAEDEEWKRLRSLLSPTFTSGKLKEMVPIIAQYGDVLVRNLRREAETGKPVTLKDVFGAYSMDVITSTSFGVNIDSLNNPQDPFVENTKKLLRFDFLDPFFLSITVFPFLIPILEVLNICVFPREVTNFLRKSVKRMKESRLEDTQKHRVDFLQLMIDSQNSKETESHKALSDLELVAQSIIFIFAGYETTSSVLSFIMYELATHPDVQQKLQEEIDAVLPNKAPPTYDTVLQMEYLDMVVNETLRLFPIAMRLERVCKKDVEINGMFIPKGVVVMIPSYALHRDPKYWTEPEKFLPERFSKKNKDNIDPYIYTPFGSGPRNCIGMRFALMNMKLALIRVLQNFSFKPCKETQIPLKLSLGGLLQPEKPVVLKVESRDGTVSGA
Test Method Notes: Inhibition of human CYP3A4 assessed as residual activity at 10 uM measured after 15 mins relative to control
Type: ADME
Stated Conditions: read-out: Activity
Parameter: activity at 0.25 h, 10 µM

Data request: Give recorded activity at 0.25 h, 10 µM with CYP3A4 (Homo sapiens) for the following compound: CN(C)C(=O)NCCCN(C)C1=Nc2ccccc2C(CC(=O)NCc2ccc(F)cc2)N1c1ccc(C2CCCCC2)cc1 (stereo unspecified)
Data returned: 36.9%

---

Test Method Notes: Metabolic stability in human liver microsomes assessed as parent compound remaining at 1 uM measured for 30 mins
Type: ADME, Microsome
Stated Conditions: read-out: Stabilty
Parameter: remaining at 0.5 h, 1 µM (%)
Please respond with the number in % and leave the unit unwritten.

Data request: Param item = CN(C)C(=O)NCCCN(C)C1=Nc2ccccc2C(CC(=O)NCc2ccc(F)cc2)N1c1ccc(C2CCCCC2)cc1 (stereo unspecified) ; retrieve measured remaining at 0.5 h, 1 µM.
Data returned: 71.2
